TARGET_OR_TEST_SYSTEM: Orexin receptor type 2 (Homo sapiens)
Sequence (O43614 whole entry): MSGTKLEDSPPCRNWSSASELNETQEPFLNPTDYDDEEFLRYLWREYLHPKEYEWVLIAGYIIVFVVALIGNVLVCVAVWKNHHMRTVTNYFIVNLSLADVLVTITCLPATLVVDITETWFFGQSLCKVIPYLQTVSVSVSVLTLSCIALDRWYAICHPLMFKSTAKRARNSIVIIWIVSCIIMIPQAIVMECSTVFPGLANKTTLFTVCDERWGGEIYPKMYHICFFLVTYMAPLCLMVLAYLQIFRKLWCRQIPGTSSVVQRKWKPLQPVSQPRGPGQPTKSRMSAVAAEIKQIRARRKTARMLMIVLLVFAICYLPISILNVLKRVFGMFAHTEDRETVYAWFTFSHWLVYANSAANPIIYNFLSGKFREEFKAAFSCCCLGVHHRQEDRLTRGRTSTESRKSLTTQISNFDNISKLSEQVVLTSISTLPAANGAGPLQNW
ASSAY_SUMMARY: FLIPR Ca2+ Flux Assay: All reagents were from GIBCO-Invitrogen Corp. The seeded plates are incubated overnight at 37° C. and 5% CO2. Ala-6,12 human orexin-A as the agonist is prepared as a 1 mM stock solution in 1% bovine serum albumin (BSA) and diluted in assay buffer (HBSS containing 20 mM HEPES, 0.1% BSA and 2.5 mM probenecid, pH7.4) for use in the assay at a final concentration of 70pM. Test compounds are prepared as 10 mM stock solution in DMSO, then diluted in 384-well plates, first in DMSO, then assay buffer. On the day of the assay, cells are washed 3 times with 100 μl assay buffer and then incubated for 60 min (37° C., 5% CO2) in 60 μl assay buffer containing 1 μM Fluo-4AM ester, 0.02% pluronic acid, and 1% BSA. The dye loading solution is then aspirated and cells are washed 3 times with 100 μl assay buffer. 30 μl of that same buffer is left in each well. Within the Fluorescent Imaging Plate Reader (FLIPR, Molecular Devices), test compounds are added to the plate in a volume of 25 μl, incubated for 5 min and finally 25 μl of agonist is added. Fluorescence is measured for each well at 1 second intervals for 5 minutes and the height of each fluorescence peak is compared to the height of the fluorescence peak induced by 70 pM Ala-6,12 orexin-A with buffer in place of antagonist. For each antagonist, IC50 value (the concentration of compound needed to inhibit 50% of the agonist response) is determined. Alternatively, compound potency can be assessed by a radioligand binding assay (described in Bergman et. al. Bioorg. Med. Chem. Lett. 2008, 18, 1425-1430) in which the inhibition constant (Ki) is determined in membranes prepared from CHO cells expressing either the OX1 or OX2 receptor. The intrinsic orexin receptor antagonist activity of a compound which may be used in the present invention may be determined by these assays.
I'd be grateful if you could share measured pIC50 for these entries.
Reminder that pIC50 is minus the log10 of a molar concentration.

Exercise: Request body: readout pIC50, system Orexin receptor type 2 (Homo sapiens), query `C[C@@H]1C[C@@H](Nc2cc(Br)ccn2)CN1C(=O)c1ccccc1-n1nccn1` . Return the value.
Solution: 7.95

Exercise: Request body: readout pIC50, system Orexin receptor type 2 (Homo sapiens), query `C[C@@H]1C[C@@H](Nc2cc(OCC(F)F)ccn2)CN1C(=O)c1ccccc1C1(C#N)CCC1` . Return the value.
Solution: 7.23
